Tested on: ITK
test.settings: concentration: 1 μM, replicates: in singlicate; n = 1;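 note: KINOMEscan kinase panel screen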
Recorded %Inh by entry
assay.metric: %Inh (%)

[[record]]
molecular_string = "O=c1cc(N2CCOCC2)nc2n(Cc3cccc4ccccc34)ccn12"
recorded_measurement = 21

[[record]]
molecular_string = "[2H]C([2H])(c1cccc(C(F)(F)F)c1C)n1ccn2c(=O)nc(N3CCOCC3)cc12"
recorded_measurement = 17

[[record]]
molecular_string = "Cc1cccc(-c2nc(Nc3ccc4ncsc4c3)c3ccccc3n2)n1"
recorded_measurement = 30

[[record]]
molecular_string = "Fc1ccc(-c2nn3c(OCC(F)(F)F)cccc3c2-c2ccncc2)cc1"
recorded_measurement = 9

[[record]]
molecular_string = "Cc1ccc(C(=O)NCC(N)=O)cc1-n1c(C)cc(OCc2ccc(F)cc2F)c(Br)c1=O"
recorded_measurement = 22

[[record]]
molecular_string = "NS(=O)(=O)c1cccc(-c2ccc3ncc(N4CCOCC4)nc3c2)c1"
recorded_measurement = 3

[[record]]
molecular_string = "CN1c2ccc(NCc3ccc(F)cc3)cc2-c2c(cnn2C)S1(=O)=O"
recorded_measurement = 0

[[record]]
molecular_string = "CCn1cnc2c(N)ncnc21"
recorded_measurement = 16

[[record]]
molecular_string = "CN(C1=C(c2ccccc2)C(=O)NC1=O)c1ccccc1"
recorded_measurement = 0

[[record]]
molecular_string = "Nc1nccc(-c2c(-c3ccc(F)cc3)ncn2C2CCN(CC(F)(F)F)CC2)n1"
recorded_measurement = 0

[[record]]
molecular_string = "Fc1ccc(-c2ncn(CCCN3CCOCC3)c2-c2ccccn2)cc1"
recorded_measurement = 0

[[record]]
molecular_string = "O=C(Nc1cccc(-c2nn3ncccc3c2-c2ccnc(Nc3cccc(C(F)(F)F)c3)n2)c1)c1c(F)cccc1F"
recorded_measurement = 23

[[record]]
molecular_string = "CCc1ccnc(/C=C/c2n[nH]c3cc(Sc4ccccc4C(=O)NC)ccc23)c1"
recorded_measurement = 1

[[record]]
molecular_string = "Cl.Nc1ncnc2occ(-c3ccc(NC(=O)Nc4cc(C(F)(F)F)ccc4F)cc3)c12"
recorded_measurement = 9

[[record]]
molecular_string = "Cc1cccc(Cn2ccn3c(=O)cc(N4CCOCC4)nc23)c1"
recorded_measurement = 24

[[record]]
molecular_string = "COc1cc2ncn(-c3cc(OCc4sccc4Cl)c(C(N)=O)s3)c2cc1OC"
recorded_measurement = 12


----------
Recorded %Inh by entry
Test system: SNARK
Construct: gene NUAK2
test.settings: concentration: 1 μM, replicates: in singlicate; n = 1
assay.metric: %Inh (%)

[[record]]
compound = "NS(=O)(=O)c1cccc(-c2ccc3ncc(N4CCOCC4)nc3c2)c1"
recorded_measurement = 1

[[record]]
compound = "c1ccc(-c2cc(-c3c[nH]nc3-c3ccccn3)ccn2)cc1"
recorded_measurement = 0

[[record]]
compound = "COc1ccc(CNC(=O)NC2CCN(c3ccnc(Nc4ccc(OC)cc4)n3)C2)cc1 (stereo not drawn)"
recorded_measurement = 0

[[record]]
compound = "Cl.Oc1cccc(Nc2ccnc3cc(-c4ccncc4)ccc23)c1"
recorded_measurement = 12

[[record]]
compound = "Cl.Nc1ncnc2occ(-c3ccc(NC(=O)Nc4cc(C(F)(F)F)ccc4F)cc3)c12"
recorded_measurement = 0

[[record]]
compound = "O=C1Cc2cc(Nc3nc(NCc4cccc(S(=O)(=O)C(F)(F)F)c4)ncc3C(F)(F)F)ccc2N1"
recorded_measurement = 0

[[record]]
compound = "CNc1ncnc2[nH]ncc12"
recorded_measurement = 0

[[record]]
compound = "CCc1nc(-c2cccc(C)c2)c(-c2ccnc(NCc3ccccc3)c2)s1"
recorded_measurement = 0

[[record]]
compound = "O=c1cc(N2CCOCC2)nc2n(Cc3cccc(Cl)c3Cl)c(C3CC3)nn12"
recorded_measurement = 0


Origin of values: paper PMC5540273
